Data origin, for the record: paper PMC12114633

system: normal C57BL/6J mice; experiment: Oral sucrose test, postprandial blood glucose; type: in vivo; conditions: 10 mg/kg oral, vs model group, 30 min after sucrose
Give Rate of blood glucose reduction for every item shown.
Response body: numeric value in %, unit text excluded.

O=C1C[C@@H](c2ccc(O)cc2)Oc2cc(O)ccc21 [C3, liquiritigenin] yielded Rate of blood glucose reduction of -0.90

# Rate of blood glucose reduction of O=c1c(O)c(-c2ccc(O)c(O)c2)oc2cc(O)cc(O)c12 [C1, quercetin] = 0.77

// field: Rate of blood glucose reduction; key: O=c1c(O[C@@H]2O[C@H](CO)[C@@H](O)[C@H](O)[C@H]2O)c(-c2ccc(O)c(O)c2)oc2cc(O)cc(O)c12 [C10, isoquercitrin] ; value = 7.66

// recorded Rate of blood glucose reduction for O=C(/C=C/c1ccc(O)cc1)c1ccc(O)cc1O [C4, isoliquiritigenin] : 8.07

# compound C[C@@H]1O[C@@H](OC[C@H]2O[C@@H](Oc3c(-c4ccc(O)c(O)c4)oc4cc(O)cc(O)c4c3=O)[C@H](O)[C@@H](O)[C@@H]2O)[C@H](O)[C@H](O)[C@H]1O [C6, rutin] ; its Rate of blood glucose reduction = 11.49

For reference, reported Rate of blood glucose reduction for COc1ccc(-c2coc3cc(O[C@@H]4O[C@H](CO)[C@@H](O)[C@H](O)[C@H]4O)ccc3c2=O)cc1O [C16, calycosin-7-O-glucoside] stands at 2.75

Entry COc1ccc2c(c1OC)OC1c3ccc(O[C@@H]4O[C@H](CO)[C@@H](O)[C@H](O)[C@H]4O)cc3OCC21 (stereo partly drawn) [C19, astrapterocarpan-3-O-glucoside] ; Rate of blood glucose reduction = 11.17

Recorded Rate of blood glucose reduction (compound O=c1c(O)c(-c2ccc(O)cc2)oc2cc(O)cc(O)c12 [C2, kaempferol] ): 9.06

Summary for this compound, Oc1ccc([C@H]2COc3cc(O)ccc3C2)cc1 [C29, equol] : Rate of blood glucose reduction is 8.20

For this compound ( O=C1c2ccc(O)cc2OCC1c1ccc(O)cc1 (stereo not drawn) [C28, dihydrodaidzein] ), measured Rate of blood glucose reduction is 12.61

# compound COc1cc(-c2oc3cc(O)cc(O)c3c(=O)c2OC2OC(CO)C(O)C(O)C2O)ccc1O (stereo not drawn) [C14, isorhamnetin-3-O-glucoside] ; its Rate of blood glucose reduction = -2.50

For reference, reported Rate of blood glucose reduction for COc1ccc(C2COc3cc(O)ccc3C2)c(O)c1OC (stereo not drawn) [C17, isomucronulatol] stands at 6.32
